B1: TPR 5TU (parent)
chain: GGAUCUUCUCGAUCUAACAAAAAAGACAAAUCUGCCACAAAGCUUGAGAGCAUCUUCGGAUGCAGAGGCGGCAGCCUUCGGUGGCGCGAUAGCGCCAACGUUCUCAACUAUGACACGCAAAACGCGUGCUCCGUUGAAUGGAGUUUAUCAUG

Variants of: B1
Test: polymerase ribozyme fitness, log enrichment relative to wild type (log ratio); higher = more active; in vitro selection for triplet polymerase activity
This sample holds only a part of the variants without activity.

# mutant.label, polymerase ribozyme fitness (log ratio)
data = [
    ("G68C C93G", "≤ -4.2"),
    ("U9G C85A C103A C118G U134A", "≤ -4.2"),
    ("A21U C36A G80A G88A G100U G124C G133A G143C U148A", "≤ -4.2"),
    ("C43U G83U G92A", "≤ -4.2"),
]
